Target: T1, HLA-DR13 (HLA-DRB1*13:01) (human)
T1 chain 1: not shown
T1 chain 2: not shown
Assay: competition ELISA vs biotin-B1 21-36
READOUT_LABEL: IC50 (nM)
Value expressed in nM; do not type the unit.

input: Dear colleague, I am looking for the recorded IC50 of the following binder: TERVRLVTRHIYNREE (modifications not checked) [B1 21-36]
output: 51
